Values were extracted from ChEMBL document CHEMBL1148787.

systemTested: Amine oxidase [flavin-containing] A (Homo sapiens, UniProt P21397)
Sequence (P21397 whole entry): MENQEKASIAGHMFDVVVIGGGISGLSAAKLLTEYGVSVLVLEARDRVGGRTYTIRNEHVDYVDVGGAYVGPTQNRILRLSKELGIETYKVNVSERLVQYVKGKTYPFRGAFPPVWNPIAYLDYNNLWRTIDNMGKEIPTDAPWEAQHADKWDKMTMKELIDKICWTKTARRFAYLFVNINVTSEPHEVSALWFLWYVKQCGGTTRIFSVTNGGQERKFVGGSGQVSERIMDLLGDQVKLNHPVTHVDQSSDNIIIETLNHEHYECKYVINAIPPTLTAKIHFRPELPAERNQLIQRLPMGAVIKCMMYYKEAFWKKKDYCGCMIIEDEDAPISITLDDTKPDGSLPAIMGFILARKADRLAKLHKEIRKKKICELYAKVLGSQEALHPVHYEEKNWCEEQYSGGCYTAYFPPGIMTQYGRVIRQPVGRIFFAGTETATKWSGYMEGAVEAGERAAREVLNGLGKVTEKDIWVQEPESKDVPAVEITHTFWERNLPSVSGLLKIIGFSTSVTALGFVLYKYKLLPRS
experimentSummary: Inhibition of human liver MAOA expressed in yeast
pKi: −log10 of the molar value.
pKi of 5 or higher: class 1. Under 5: class 0.

# example entries with known answers
compound: O=C1O[C@@H](Cn2ccnn2)CN1c1ccc(-c2ccc(C(O)C3CNC3)nc2)c(F)c1 (some centres undefined)
systemTested: Amine oxidase [flavin-containing] A (Homo sapiens, UniProt P21397)
groupLabel: class 0
//
compound: O=C(CC1CCNCC1)c1ccc(-c2ccc(N3C[C@H](Cn4ccnn4)OC3=O)cc2F)cn1
systemTested: Amine oxidase [flavin-containing] A (Homo sapiens, UniProt P21397)
groupLabel: class 0
//
compound: C[C@H](O)c1ccc(-c2ccc(N3C[C@H](Cn4ccnn4)OC3=O)cc2F)cn1
systemTested: Amine oxidase [flavin-containing] A (Homo sapiens, UniProt P21397)
groupLabel: class 1
//
compound: CN1CCN(CCCC(O)c2ccc(-c3ccc(N4C[C@H](Cn5ccnn5)OC4=O)cc3F)cn2)CC1 (some centres undefined)
systemTested: Amine oxidase [flavin-containing] A (Homo sapiens, UniProt P21397)
groupLabel: class 0
//
compound: O=C1O[C@@H](Cn2ccnn2)CN1c1ccc(-c2ccc(C(O)C3CCNCC3)nc2)c(F)c1 (some centres undefined)
systemTested: Amine oxidase [flavin-containing] A (Homo sapiens, UniProt P21397)
groupLabel: class 0
//
compound: Cc1nccn1CC(=O)c1ccc(-c2ccc(N3C[C@H](Cn4ccnn4)OC3=O)cc2F)cn1
systemTested: Amine oxidase [flavin-containing] A (Homo sapiens, UniProt P21397)
groupLabel: class 0

Exam item: decide whether the reported pKi for CO[C@H](C)c1ccc(-c2ccc(N3C[C@H](Cn4ccnn4)OC3=O)cc2F)cn1 is at least 5.
class 1

Does CC(=O)c1ccc(-c2ccc(N3C[C@H](Cn4ccnn4)OC3=O)cc2F)cn1 have a reported pKi of at least 5?
class 1

Determine whether measured pKi meets or exceeds 5 for CC(C)(O)c1ccc(-c2ccc(N3C[C@H](Cn4ccnn4)OC3=O)cc2F)cn1
class 1

----------
systemTested: Cytochrome P450 1A2 (Homo sapiens, UniProt P05177)
Sequence (P05177 whole entry): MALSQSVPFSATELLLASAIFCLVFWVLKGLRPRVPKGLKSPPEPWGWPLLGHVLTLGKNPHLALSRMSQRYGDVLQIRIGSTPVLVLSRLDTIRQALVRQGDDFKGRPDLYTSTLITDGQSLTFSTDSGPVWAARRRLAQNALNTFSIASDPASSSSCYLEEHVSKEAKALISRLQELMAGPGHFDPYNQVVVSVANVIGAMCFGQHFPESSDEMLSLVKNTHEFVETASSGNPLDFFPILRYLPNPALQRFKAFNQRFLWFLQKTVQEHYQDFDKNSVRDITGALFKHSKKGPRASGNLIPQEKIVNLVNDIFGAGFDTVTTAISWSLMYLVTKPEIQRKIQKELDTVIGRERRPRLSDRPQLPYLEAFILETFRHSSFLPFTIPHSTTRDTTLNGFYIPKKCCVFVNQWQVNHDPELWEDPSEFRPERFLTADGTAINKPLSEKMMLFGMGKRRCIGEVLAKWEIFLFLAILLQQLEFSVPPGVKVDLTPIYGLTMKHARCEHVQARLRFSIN
experimentSummary: Inhibition of human recombinant CYP1A2
Type: ADME
# maps each entry to its IC50

compoundStructure: O=C1O[C@@H](Cn2ccnn2)CN1c1ccc(-c2cccnc2)c(F)c1
IC50: > 20 µM

compoundStructure: Cc1cnc(C)n1CC(=O)c1ccc(-c2ccc(N3C[C@H](Cn4ccnn4)OC3=O)cc2F)cn1
IC50: > 20 µM

compoundStructure: Cc1nccn1CC(=O)c1ccc(-c2ccc(N3C[C@H](Cn4ccnn4)OC3=O)cc2F)cn1
IC50: > 20 µM

compoundStructure: O=C1O[C@@H](Cn2ccnn2)CN1c1ccc(-c2ccc(CO)nc2)c(F)c1
IC50: > 20 µM

Next item in the queue.
Provide the reported IC50 (system: Cytochrome P450 1A2 (Homo sapiens, UniProt P05177)) for Cc1cn(CC(=O)c2ccc(-c3ccc(N4C[C@H](Cn5ccnn5)OC4=O)cc3F)cn2)cn1
> 20 µM

----------
Test system: Streptococcus pneumoniae
experimentSummary: Antibacterial activity against penicillin-susceptible Streptococcus pneumoniae AP671401
Type: functional
endpoint: MIC (µg/mL)
The figure you give is taken to be in µg/mL; do not add the unit.

molecule: CC(C)(O)c1ccc(-c2ccc(N3C[C@H](Cn4ccnn4)OC3=O)cc2F)cn1
systemTested: Streptococcus pneumoniae
MIC (µg/mL): 0.25
//
molecule: CC(C)C(O)c1ccc(-c2ccc(N3C[C@H](Cn4ccnn4)OC3=O)cc2F)cn1 (some centres undefined)
systemTested: Streptococcus pneumoniae
MIC (µg/mL): 0.25

Given O=C1O[C@@H](Cn2ccnn2)CN1c1ccc(-c2ccc(C(O)C3CNC3)nc2)c(F)c1 (some centres undefined) , respond with its MIC.
16

Quote MIC reported for COCc1ccc(-c2ccc(N3C[C@H](Cn4ccnn4)OC3=O)cc2F)cn1 please.
0.13

Consider the molecule CO[C@H](C)c1ccc(-c2ccc(N3C[C@H](Cn4ccnn4)OC3=O)cc2F)cn1 . State its measured MIC.
0.25

Give the value of MIC reported for the following: O=C(c1ccc(-c2ccc(N3C[C@H](Cn4ccnn4)OC3=O)cc2F)cn1)C1CNC1
1

Tell me MIC reported for O=C1O[C@@H](Cn2ccnn2)CN1c1ccc(-c2ccc(CO)nc2)c(F)c1
0.13

# return recorded MIC for input O=C1O[C@@H](Cn2ccnn2)CN1c1ccc(-c2ccc(C(O)C3CCNCC3)nc2)c(F)c1 (some centres undefined)
4

Give the measured MIC for O=C(CC1CCNCC1)c1ccc(-c2ccc(N3C[C@H](Cn4ccnn4)OC3=O)cc2F)cn1
0.13

Specify measured MIC for CC(C)NCC(O)c1ccc(-c2ccc(N3C[C@H](Cn4ccnn4)OC3=O)cc2F)cn1 (some centres undefined) .
0.5

Tell us which MIC value is on record for CN1CCN(CCCC(O)c2ccc(-c3ccc(N4C[C@H](Cn5ccnn5)OC4=O)cc3F)cn2)CC1 (some centres undefined)
0.25

----------
systemTested: Cytochrome P450 2C19 (Homo sapiens)
Sequence (P33261 whole entry): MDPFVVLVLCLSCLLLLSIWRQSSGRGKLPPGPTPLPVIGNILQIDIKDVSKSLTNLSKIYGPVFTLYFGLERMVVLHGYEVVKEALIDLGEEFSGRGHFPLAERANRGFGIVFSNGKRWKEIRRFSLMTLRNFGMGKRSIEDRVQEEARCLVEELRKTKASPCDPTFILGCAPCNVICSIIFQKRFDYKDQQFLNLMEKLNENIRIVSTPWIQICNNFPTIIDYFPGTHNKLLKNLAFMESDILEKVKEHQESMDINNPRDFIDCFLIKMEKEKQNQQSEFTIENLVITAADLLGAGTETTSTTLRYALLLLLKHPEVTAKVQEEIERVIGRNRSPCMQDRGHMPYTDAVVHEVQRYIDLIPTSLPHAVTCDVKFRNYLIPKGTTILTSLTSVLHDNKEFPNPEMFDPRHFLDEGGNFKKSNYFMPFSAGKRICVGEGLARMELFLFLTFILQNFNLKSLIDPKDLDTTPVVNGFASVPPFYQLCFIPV
experimentSummary: Inhibition of human recombinant CYP2C19
pIC50: −log10 of the molar value.
# pIC50 listing for each entry below

Answer with the recorded pIC50 for the compound listed here: Cc1cn(CC(=O)c2ccc(-c3ccc(N4C[C@H](Cn5ccnn5)OC4=O)cc3F)cn2)cn1
< 4.70

Give the reported value of pIC50 for this record: O=C1O[C@@H](Cn2ccnn2)CN1c1ccc(-c2ccc(CO)nc2)c(F)c1
< 4.70

----------
experimentSummary: Clearance in Wistar rat at 10 mg/kg, iv
Format: ADME, organism-based
Design: dose 10 mg/kg, route intravenous
conditionLabel: in vivo
endpoint: clearance (mL/min/kg)
Report the value in mL/min/kg with no unit label.

In the examples that follow, each entry is paired with its recorded clearance.
molecule: O=C(CC1CCNCC1)c1ccc(-c2ccc(N3C[C@H](Cn4ccnn4)OC3=O)cc2F)cn1
readoutUnits: mL/min/kg
clearance: 196
//
molecule: O=C(c1ccc(-c2ccc(N3C[C@H](Cn4ccnn4)OC3=O)cc2F)cn1)C1CCNCC1
readoutUnits: mL/min/kg
clearance: 38
//
molecule: O=C1O[C@@H](Cn2ccnn2)CN1c1ccc(-c2ccc(C(O)CO)nc2)c(F)c1 (stereo partly specified)
readoutUnits: mL/min/kg
clearance: 43
//
molecule: Cc1nccn1CC(=O)c1ccc(-c2ccc(N3C[C@H](Cn4ccnn4)OC3=O)cc2F)cn1
readoutUnits: mL/min/kg
clearance: 62

Please turn your attention to the following entry.
Determine its reported clearance: C[C@H](O)c1ccc(-c2ccc(N3C[C@H](Cn4ccnn4)OC3=O)cc2F)cn1
25

----------
Overview of recorded pIC50 for various molecules
systemTested: Cytochrome P450 3A4 (Homo sapiens, UniProt P08684)
Sequence (P08684 whole entry): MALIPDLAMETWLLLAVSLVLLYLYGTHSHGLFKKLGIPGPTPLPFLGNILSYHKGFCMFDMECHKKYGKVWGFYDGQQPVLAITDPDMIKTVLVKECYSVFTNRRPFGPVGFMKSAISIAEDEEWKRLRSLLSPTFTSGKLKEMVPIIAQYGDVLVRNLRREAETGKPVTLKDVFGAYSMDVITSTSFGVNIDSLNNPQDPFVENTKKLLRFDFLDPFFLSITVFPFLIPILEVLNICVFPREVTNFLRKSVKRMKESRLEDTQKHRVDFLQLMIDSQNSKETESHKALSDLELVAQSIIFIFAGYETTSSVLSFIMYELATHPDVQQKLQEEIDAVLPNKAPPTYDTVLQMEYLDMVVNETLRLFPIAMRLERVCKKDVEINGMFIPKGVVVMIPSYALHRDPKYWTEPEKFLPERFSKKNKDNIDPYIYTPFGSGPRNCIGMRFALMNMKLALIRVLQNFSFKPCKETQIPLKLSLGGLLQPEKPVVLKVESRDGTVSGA
experimentSummary: Inhibition of human recombinant CYP3A4
pIC50: −log10 of the molar value.

Some solved entries appear below for comparison.
compoundStructure: Cc1nccn1CC(=O)c1ccc(-c2ccc(N3C[C@H](Cn4ccnn4)OC3=O)cc2F)cn1
pIC50: < 4.70
--
compoundStructure: O=C1O[C@@H](Cn2ccnn2)CN1c1ccc(-c2ccc(CO)nc2)c(F)c1
pIC50: < 4.70

Now look at this entry.
Provide one value: measured pIC50 of Cc1cn(CC(=O)c2ccc(-c3ccc(N4C[C@H](Cn5ccnn5)OC4=O)cc3F)cn2)cn1
< 4.70

----------
Here the recorded log10(solubility kinetic) is given for each entry.
experimentSummary: Solubility by nephelometric analysis
Assay type: physicochemical
Values below are the log10 of the recorded solubility kinetic, with µM as the unit.

compoundStructure: O=C(Cn1ccnc1)c1ccc(-c2ccc(N3C[C@H](Cn4ccnn4)OC3=O)cc2F)cn1
endpoint: log10(solubility kinetic)
recordedMeasurement: 1.10

compoundStructure: O=C(c1ccc(-c2ccc(N3C[C@H](Cn4ccnn4)OC3=O)cc2F)cn1)C1CCNCC1
endpoint: log10(solubility kinetic)
recordedMeasurement: 2.00

compoundStructure: O=C(CCCN1CCOCC1)c1ccc(-c2ccc(N3C[C@H](Cn4ccnn4)OC3=O)cc2F)cn1
endpoint: log10(solubility kinetic)
recordedMeasurement: 2.00

compoundStructure: Cc1cnc(C)n1CC(=O)c1ccc(-c2ccc(N3C[C@H](Cn4ccnn4)OC3=O)cc2F)cn1
endpoint: log10(solubility kinetic)
recordedMeasurement: 1.70

compoundStructure: Cc1cn(CC(=O)c2ccc(-c3ccc(N4C[C@H](Cn5ccnn5)OC4=O)cc3F)cn2)c(C)n1
endpoint: log10(solubility kinetic)
recordedMeasurement: 1.40

compoundStructure: COCc1ccc(-c2ccc(N3C[C@H](Cn4ccnn4)OC3=O)cc2F)cn1
endpoint: log10(solubility kinetic)
recordedMeasurement: 2.00

compoundStructure: CCc1nccn1CC(=O)c1ccc(-c2ccc(N3C[C@H](Cn4ccnn4)OC3=O)cc2F)cn1
endpoint: log10(solubility kinetic)
recordedMeasurement: 2.00

compoundStructure: CC(=O)c1ccc(-c2ccc(N3C[C@H](Cn4ccnn4)OC3=O)cc2F)cn1
endpoint: log10(solubility kinetic)
recordedMeasurement: 1.70

compoundStructure: Cc1nccn1CC(=O)c1ccc(-c2ccc(N3C[C@H](Cn4ccnn4)OC3=O)cc2F)cn1
endpoint: log10(solubility kinetic)
recordedMeasurement: 2.30

Item Cc1cn(CC(=O)c2ccc(-c3ccc(N4C[C@H](Cn5ccnn5)OC4=O)cc3F)cn2)cn1 : provide log10(solubility kinetic)
1.10
